system: Nonstructural protein 5A (Hepatitis C virus), Q5L478 [UNDEFINED MUTATION]; experiment: Inhibition of NS5A L31V mutant in HCV genotype 1a assessed as reduction in replicon RNA level after 3 days by cell based RT-PCR method; settings: Hepatitis C virus subtype 1a

>  <compound>
COC(=O)N[C@H](C(=O)N1CC[C@H](OC)[C@H]1c1ncc(-c2cc(F)c3c(c2)OC(c2cccc(OC)c2)n2c-3cc3cc(-c4cnc([C@@H]5[C@@H](OC)CCN5C(=O)[C@@H](NC(=O)OC)C(C)C)[nH]4)ccc32)[nH]1)C(C)C (some centres undefined)

>  <EC90, nM>
24.5

$$$$
>  <compound>
COC(=O)N[C@H](C(=O)N1C[C@H](OC)C[C@H]1c1ncc(-c2cc(F)c3c(c2)OC(c2cccc(OC)c2)n2c-3cc3cc(-c4cnc([C@@H]5C[C@@H](OC)CN5C(=O)[C@@H](NC(=O)OC)C(C)C)[nH]4)ccc32)[nH]1)C(C)C (some centres undefined)

>  <EC90, nM>
0.19

$$$$
>  <compound>
COC(=O)N[C@H](C(=O)N1C[C@H](F)C[C@H]1c1ncc(-c2cc(F)c3c(c2)OC(c2cccc(OC)c2)n2c-3cc3cc(-c4cnc([C@@H]5C[C@H]6C[C@H]6N5C(=O)[C@@H](NC(=O)OC)C(C)C)[nH]4)ccc32)[nH]1)C(C)C (some centres undefined)

>  <EC90, nM>
0.92

$$$$
>  <compound>
COC(=O)N[C@H](C(=O)N1C[C@@H](OC)C[C@H]1c1ncc(-c2cc(F)c3c(c2)OC(c2cccc(OC)c2)n2c-3cc3cc(-c4cnc([C@@H]5C[C@H](OC)CN5C(=O)[C@@H](NC(=O)OC)C(C)C)[nH]4)ccc32)[nH]1)C(C)C (some centres undefined)

>  <EC90, nM>
0.04

$$$$
